assay info: Cytotoxicity against human Hep3B cells
Format: functional, cell-based, Hep 3B2
readout type: IC50 (µg/mL)
Expressed in µg/mL, but write only the number.

q: Look up IC50: COc1cccc2c1C(=O)c1c(O)c3c(c(O)c1C2=O)C[C@@](O)(C(=O)CO)C[C@@H]3O[C@H]1C[C@H](N)[C@H](O)[C@H](C)O1 [DOXORUBICIN]
a: 0.06

q: Same thing, different molecule: COCC1=C2/C(=C\[C@@]3(C)CC[C@](O)(O3)[C@@](C)(O)C[C@@H]2O)OC1=O [SPICATOLIDES D]
a: 4.8

q: Same thing, different molecule: COCC1=C2[C@@H](O)C[C@@]3(C)O[C@]2(C[C@](C)(O)CCC3=O)OC1=O [SPICATOLIDE F]
a: 3.2

q: Same thing, different molecule: COCC1=C2[C@@H](OC(C)=O)C[C@@]3(C)O[C@@]2(OC1=O)[C@H](O)[C@@]1(C)CC[C@]3(O)O1 [SPICATOLIDE G]
a: 6.1
